# Test system: A549
# experiment: Cytotoxicity against human A549 cells assessed as cell growth inhibition
# Format: functional, cell-based
The entries below come with measured IC50 values attached.

Some compounds with known IC50 results, for comparison:
COc1c(O)c(CN2CCN(S(=O)(=O)c3ccc(I)cc3)CC2)c2c(c1O)C1O[C@H](CO)[C@@H](O)[C@H](O)C1OC2=O (stereo partly drawn) = > 100 µM
COc1c(O)c(CN2CCN(S(=O)(=O)c3ccc(Br)cc3)CC2)c2c(c1O)C1O[C@H](CO)[C@@H](O)[C@H](O)C1OC2=O (stereo partly drawn) = > 100 µM
COc1c(O)c(CN2CCN(S(=O)(=O)c3ccc(F)cc3Cl)CC2)c2c(c1O)C1O[C@H](CO)[C@@H](O)[C@H](O)C1OC2=O (stereo partly drawn) = > 100 µM
COc1c(O)c(CN2CCN(CC(=O)Nc3nc4ccc(F)cc4s3)CC2)c2c(c1O)C1O[C@H](CO)[C@@H](O)[C@H](O)C1OC2=O (stereo partly drawn) = > 100 µM

Req: // returns reported IC50 for input COc1c(O)c(CN2CCN(S(=O)(=O)c3ccc(F)c(F)c3F)CC2)c2c(c1O)C1O[C@H](CO)[C@@H](O)[C@H](O)C1OC2=O (stereo partly drawn)
Resp: > 100 µM

###

# Tested on: CAL-27
# experiment: Cytotoxicity against human CAL-27 cells assessed as cell growth inhibition
# Format: functional, cell-based
pIC50: −log10 of the molar value.
endpointLabel: pIC50

Take a look at these entries with their results.
COc1c(O)c(CN2CCN(S(=O)(=O)c3ccc(F)c(F)c3)CC2)c2c(c1O)C1O[C@H](CO)[C@@H](O)[C@H](O)C1OC2=O (stereo not given in full) = < 4.00
COc1c(O)c(CN2CCN(S(=O)(=O)c3cccs3)CC2)c2c(c1O)C1O[C@H](CO)[C@@H](O)[C@H](O)C1OC2=O (stereo not given in full) = < 4.00
COc1c(O)c(CN2CCN(S(=O)(=O)c3ccc(F)c(F)c3F)CC2)c2c(c1O)C1O[C@H](CO)[C@@H](O)[C@H](O)C1OC2=O (stereo not given in full) = < 4.00
COc1c(O)c(CN2CCN(S(=O)(=O)c3ccc(OC(F)(F)F)cc3)CC2)c2c(c1O)C1O[C@H](CO)[C@@H](O)[C@H](O)C1OC2=O (stereo not given in full) = < 4.00
COc1c(O)c(CN2CCN(S(=O)(=O)c3ccc(F)cc3Cl)CC2)c2c(c1O)C1O[C@H](CO)[C@@H](O)[C@H](O)C1OC2=O (stereo not given in full) = < 4.00

Req: Given the compound COc1ccc(S(=O)(=O)N2CCN(Cc3c(O)c(OC)c(O)c4c3C(=O)OC3C4O[C@H](CO)[C@@H](O)[C@@H]3O)CC2)cc1 (stereo not given in full) , what is its reported pIC50?
Resp: < 4.00

Req: Dear colleague, I am looking for the recorded pIC50 of the following compound: COc1ccc(S(=O)(=O)N2CCN(Cc3c(O)c(OC)c(O)c4c3C(=O)OC3C4O[C@H](CO)[C@@H](O)[C@@H]3O)CC2)cc1OC (stereo not given in full)
Resp: < 4.00

Req: Query: pIC50; subject: COc1c(O)cc2c(c1O)C1O[C@H](CO)[C@@H](O)[C@H](O)C1OC2=O (stereo not given in full)
Resp: < 4.00

Req: So what does the record say about pIC50 for COc1c(O)c(CN2CCN(S(=O)(=O)c3ccc(Br)cc3)CC2)c2c(c1O)C1O[C@H](CO)[C@@H](O)[C@H](O)C1OC2=O (stereo not given in full) ?
Resp: < 4.00

Req: Need pIC50 of COc1c(O)c(CN2CCN(CC(=O)Nc3nc4ccc(Cl)cc4s3)CC2)c2c(c1O)C1O[C@H](CO)[C@@H](O)[C@H](O)C1OC2=O (stereo not given in full) , thanks.
Resp: < 4.00

###

# Tested on: A549
# experiment: Cytotoxicity against human A549 cells assessed as cell growth inhibition
# Format: functional, cell-based
endpointLabel: IC50

Examples from the recorded data:
COc1c(O)c(CN2CCN(S(=O)(=O)c3cccs3)CC2)c2c(c1O)C1O[C@H](CO)[C@@H](O)[C@H](O)C1OC2=O (stereo partly drawn) = > 100 µM
COc1c(O)c(CN2CCN(S(=O)(=O)c3cccc4ccccc34)CC2)c2c(c1O)C1O[C@H](CO)[C@@H](O)[C@H](O)C1OC2=O (stereo partly drawn) = > 100 µM

Req: Give A549 IC50 for `COc1cccc2c1C(=O)c1c(O)c3c(c(O)c1C2=O)C[C@@](O)(C(=O)CO)C[C@@H]3O[C@H]1C[C@H](N)[C@H](O)[C@H](C)O1`
Resp: 0.8 µM

Req: Under A549: IC50 value of COc1c(O)c(CN2CCN(CC(=O)Nc3nc4ccc(Cl)cc4s3)CC2)c2c(c1O)C1O[C@H](CO)[C@@H](O)[C@H](O)C1OC2=O (stereo partly drawn) ?
Resp: 65.6 µM

Req: Enter reported IC50 observed with A549 for COc1c(O)c(CN2CCN(CC(=O)Nc3nc(-c4ccc(Cl)cc4)cs3)CC2)c2c(c1O)C1O[C@H](CO)[C@@H](O)[C@H](O)C1OC2=O (stereo partly drawn)
Resp: 49.9 µM

Req: Form: Entry = COc1c(O)c(CN2CCN(CC(=O)Nc3nc4ccc([N+](=O)[O-])cc4s3)CC2)c2c(c1O)C1O[C@H](CO)[C@@H](O)[C@H](O)C1OC2=O (stereo partly drawn) | System = A549 | IC50 = ____
Resp: > 100 µM

Req: Notebook entry, A549 assay: IC50 of COc1c(O)c(CN2CCN(CC(=O)Nc3nc4c(Cl)cccc4s3)CC2)c2c(c1O)C1O[C@H](CO)[C@@H](O)[C@H](O)C1OC2=O (stereo partly drawn) = ?
Resp: 22.5 µM

Req: IC50 of COc1c(O)c(CN2CCN(S(=O)(=O)c3ccc(OC(F)(F)F)cc3)CC2)c2c(c1O)C1O[C@H](CO)[C@@H](O)[C@H](O)C1OC2=O (stereo partly drawn) on A549?
Resp: > 100 µM
